Test system: IICR (IP3 induced calcium release) in CHO cells
Test: Assay of IICR (IP3 induced calcium release)-inhibiting action
Assay type: cell-based, Chinese hamster
Conditions: Cricetulus griseus, CHO, test compound 100 μmol; CHO cells, 10 μM ATP; read-out: IICR level (percentage of inhibition)
measured.endpoint: inhibition at 100 µM (%)
Give bare numbers, in %.

Guide cases for inhibition at 100 µM, answers given:
molecule="CC(C)N(CCC(=O)c1ccc(C#N)cc1)Cc1ccccc1 [Example 308]" target_entity="IICR (IP3 induced calcium release) in CHO cells" value=95
molecule="CC(C)(C)N(CCC(=O)c1ccncc1)Cc1ccccc1 [Example 210]" target_entity="IICR (IP3 induced calcium release) in CHO cells" value=0
molecule="CC(C)N(CCC(=O)n1nnc2ccccc21)Cc1ccccc1 [Example 295]" target_entity="IICR (IP3 induced calcium release) in CHO cells" value=60
molecule="CC(C)N(CCO)CCC(=O)c1cc(Cl)sc1Cl [Example 203]" target_entity="IICR (IP3 induced calcium release) in CHO cells" value=100
molecule="CC(C)N(CCC(=O)c1ccc[nH]1)Cc1ccccc1 [Example 110]" target_entity="IICR (IP3 induced calcium release) in CHO cells" value=100
molecule="CC(C)(C)N(CCC(=O)c1ccc(I)s1)Cc1ccccc1 [Example 405]" target_entity="IICR (IP3 induced calcium release) in CHO cells" value=35

Hi team, please reply with inhibition at 100 µM for each item in this list.
1. CC(=O)CCN(CCO)C(C)C [Example 197]
2. CC(C)(C)N(CCO)CCC(=O)c1ccc(Br)s1 [Example 294]
3. CCC(C)N(CCC(=O)c1sccc1Br)C(C)CC (stereo not shown) [Example 413]

Result:
1: 0; 2: 50; 3: 78

Lab note: measured inhibition at 100 µM of CC(C)N(CCO)CCC(=O)c1ccccn1 [Example 154] was 80

====

System: IICR (IP3 induced calcium release) in CHO cells
Experiment: Assay of IICR (IP3 induced calcium release)-inhibiting action
Assay type: cell-based, Chinese hamster
Settings: Cricetulus griseus, CHO, test compound 30 μmol; CHO cells, 10 μM ATP; read-out: IICR level (percentage of inhibition)
Assign inhibition at 30 µM to each entry below.
Answers are plain numbers, in %.

compound="CCc1nccnc1C(=O)CCN(Cc1ccccc1)C(C)C [Example 186]" measured_endpoint="inhibition at 30 µM" value_unit=% value=90
compound="CCCCN(CCO)CCC(=O)c1ccncc1 [Example 51]" measured_endpoint="inhibition at 30 µM" value_unit=% value=20
compound="CN(CCO)CCC(=O)c1ccsc1 [Example 254]" measured_endpoint="inhibition at 30 µM" value_unit=% value=30

Hi team, please reply with inhibition at 30 µM for each item in this list.
1. CC(C)(C)N(CCO)CCC(=O)c1cnccn1 [Example 214]
2. CCN(CCC(=O)c1ccccn1)Cc1ccccc1 [Example 242]
3. CC(C)N(CCO)CCC(=O)n1ccnc1 [Example 199]
4. N#Cc1ccc(C(=O)CCNCCSSCCNCCC(=O)c2ccc(C#N)cc2)cc1 [Example 398]
5. O=C(CCN(CCO)Cc1ccccc1)c1cc(Cl)sc1Cl [Example 204]

Result:
1: 0; 2: 80; 3: 20; 4: 44; 5: 40

====

Test system: IICR (IP3 induced calcium release) in CHO cells
Assay: Assay of IICR (IP3 induced calcium release)-inhibiting action
Format: cell-based, Chinese hamster
Settings: Cricetulus griseus, CHO, test compound 100 μmol; CHO cells, 10 μM ATP; read-out: IICR level (percentage of inhibition)
Output satisfied for inhibition at 100 µM not less than 70%; output not satisfied otherwise.

Please review the following examples before continuing.
compound="CC(C)(C)N(CCC(=O)c1cccs1)Cc1ccccc1 [Example 193]" assigned_class=satisfied
compound="O=C(CCN(CCO)CCO)c1nccs1 [Example 143]" assigned_class=satisfied
compound="O=C(CCN(CCO)Cc1ccccc1)c1nccs1 [Example 290]" assigned_class=satisfied
compound="O=C(CCN(CCO)Cc1ccccc1)c1ccsc1 [Example 184]" assigned_class="not satisfied"
compound="CC(CN(C)CCO)C(=O)c1ccc(F)cc1 (stereo not shown) [Example 163]" assigned_class="not satisfied"
compound="CC(C)N(CCO)CCC(=O)n1ccnc1 [Example 199]" assigned_class="not satisfied"
compound="Cc1ccc(C(=O)CCN(C)CCO)o1 [Example 140]" assigned_class="not satisfied"
compound="CCN(CCC(=O)c1ccc(Cl)s1)Cc1ccccc1 [Example 278]" assigned_class="not satisfied"
compound="O=C(CCNCCCCNCCCNCCC(=O)c1ccncc1)c1ccncc1 [Example 216, N,N-bis(4-pyrizoylethyl)spermidine]" assigned_class="not satisfied"
compound="CN(CCC(=O)c1ccc(Br)s1)Cc1ccccc1 [Example 326]" assigned_class="not satisfied"

Q: Kindly determine if inhibition at 100 µM recorded for N#Cc1ccc(C(=O)CCNCCSSCCNCCC(=O)c2ccc(C#N)cc2)cc1 [Example 398] is above or exactly 70%.
Result: satisfied

Q: Kindly determine if inhibition at 100 µM recorded for CC(C)N(CCC(=O)c1cnccn1)Cc1ccccc1 [Example 117] is above or exactly 70%.
Result: satisfied

Q: Kindly determine if inhibition at 100 µM recorded for CCN(CCC(=O)c1ccc(C)o1)Cc1ccccc1 [Example 239] is above or exactly 70%.
Result: satisfied
